Molecular target: SARS-Cov-2 3CLpro (Severe acute respiratory syndrome coronavirus 2, UniProt P0DTD1)
Construct: SARS-Cov-2 3CLpro and HRV3C Duplex Assay
Assay: SARS-Cov-2 3CLpro and HRV3C duplex assay (SAMDI-MS): 3CLpro
Assay type: biochemical
Conditions: 3CLpro, duplex assay, 30 mins preincubation; class symbols; read-out: SARS-Cov-2 IC50
# IC50 listing for each entry below

{"compound": "O=C(NC1CC1)C(=O)C(C[C@@H]1CCNC1=O)NC(=O)[C@@H]1[C@@H]2C[C@@H](CC23CC3)N1C(=O)c1ncc(-c2ccccc2)s1 (stereo partly drawn) [Compound 49]", "target entity": "SARS-Cov-2 3CLpro (Severe acute respiratory syndrome coronavirus 2, UniProt P0DTD1)", "IC50": "20 to 200 nM"}
{"compound": "Cn1nc2ccccc2c1C(=O)N1CCC2(CC2)C[C@H]1C(=O)N[C@@H](C[C@@H]1CCNC1=O)C(=O)C(=O)NC1CC1 [Example 7]", "target entity": "SARS-Cov-2 3CLpro (Severe acute respiratory syndrome coronavirus 2, UniProt P0DTD1)", "IC50": "< 20 nM"}
{"compound": "O=C(NC1CC1)C(=O)[C@H](C[C@@H]1CCNC1=O)NC(=O)[C@@H]1CC2(CCN1C(=O)C1Cc3ccccc3C1)CC2 [Example 6]", "target entity": "SARS-Cov-2 3CLpro (Severe acute respiratory syndrome coronavirus 2, UniProt P0DTD1)", "IC50": "20 to 200 nM"}
{"compound": "O=C(NC1CC1)C(=O)C(C[C@@H]1CCNC1=O)NC(=O)[C@@H]1CC2(CCN1C(=O)c1cnn(-c3ccccc3)n1)CC2 (stereo partly drawn) [Compound 24]", "target entity": "SARS-Cov-2 3CLpro (Severe acute respiratory syndrome coronavirus 2, UniProt P0DTD1)", "IC50": "200 to 2000 nM"}
{"compound": "O=C(NC1CC1)C(=O)C(C[C@@H]1CCNC1=O)NC(=O)[C@@H]1CC2(CCN1C(=O)c1cc3cccc4c3n1CCC4)CC2 (stereo partly drawn) [Compound 19]", "target entity": "SARS-Cov-2 3CLpro (Severe acute respiratory syndrome coronavirus 2, UniProt P0DTD1)", "IC50": "< 20 nM"}
{"compound": "O=C(NC1CC1)C(=O)[C@H](C[C@@H]1CCNC1=O)NC(=O)[C@@H]1CC2(CCN1C(=O)c1cc3ccccn3n1)CC2 [Example 9]", "target entity": "SARS-Cov-2 3CLpro (Severe acute respiratory syndrome coronavirus 2, UniProt P0DTD1)", "IC50": "200 to 2000 nM"}

###

Molecular target: human cathepsin L (Homo sapiens, UniProt P07711)
Sequence (P07711 114-333): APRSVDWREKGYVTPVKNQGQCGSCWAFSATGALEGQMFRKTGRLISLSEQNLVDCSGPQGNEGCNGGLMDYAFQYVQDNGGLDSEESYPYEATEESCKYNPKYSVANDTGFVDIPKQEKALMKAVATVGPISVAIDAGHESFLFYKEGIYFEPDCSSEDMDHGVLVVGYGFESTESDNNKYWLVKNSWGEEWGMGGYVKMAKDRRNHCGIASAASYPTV
# IC50 listing for each entry below

{"compound": "COc1cccc(-c2csc(C(=O)N3CCC4(CC4)C[C@H]3C(=O)N[C@@H](C[C@@H]3CCNC3=O)C(=O)C(=O)NC3CC3)n2)c1", "IC50": "≥ 10 µM"}
{"compound": "O=C(NC1CC1)C(=O)C(C[C@@H]1CCNC1=O)NC(=O)[C@@H]1CC2(CCN1C(=O)c1nc3ccccc3s1)CC2 (stereo partly drawn)", "IC50": "≥ 10 µM"}
{"compound": "O=C(NC1CC1)C(=O)C(C[C@@H]1CCNC1=O)NC(=O)[C@@H]1[C@@H]2C[C@@H](CC23CC3)N1C(=O)c1ncc(-c2ccccc2)s1 (stereo partly drawn)", "IC50": "≥ 10 µM"}
{"compound": "O=C(NC1CC1)C(=O)[C@H](C[C@@H]1CCNC1=O)NC(=O)[C@@H]1CC2(CCN1C(=O)c1ccc3ccccc3c1)CC2", "IC50": "1 to 10 µM"}
{"compound": "CC(C)(C)c1csc(C(=O)N2CCC3(CC3)C[C@H]2C(=O)N[C@@H](C[C@@H]2CCNC2=O)C(=O)C(=O)NC2CC2)n1", "IC50": "1 to 10 µM"}
{"compound": "O=C(NC1CC1)C(=O)C(C[C@@H]1CCNC1=O)NC(=O)[C@@H]1CC2(CCN1C(=O)c1noc(-c3ccccc3)n1)CC2 (stereo partly drawn)", "IC50": "≥ 10 µM"}
